- measurementDescription: Plasma pharmacokinetics of veliparib and topotecan
- Type: in vivo, human
- settings: human, plasma, po
experimentalReadout: half-life (h)
Give just the numeric value; h need not be written.

input: Return reported half-life; argument: `C[C@]1(c2nc3c(C(N)=O)cccc3[nH]2)CCCN1`
output: 6.1

====

- measurementDescription: Plasma pharmacokinetics of veliparib and topotecan
- Assay type: in vivo, human
- settings: human, plasma, oral, 10 mg
experimentalReadout: AUC(0-t)

input: Return reported AUC(0-t); argument: `C[C@]1(c2nc3c(C(N)=O)cccc3[nH]2)CCCN1`
output: 351 ng·h/mL

====

- measurementDescription: Plasma pharmacokinetics of veliparib and topotecan
- Assay type: in vivo, human
- settings: human, plasma, oral, 300 mg
experimentalReadout: AUC(0-t)
State the value with its unit after it.

input: Return reported AUC(0-t); argument: `C[C@]1(c2nc3c(C(N)=O)cccc3[nH]2)CCCN1`
output: 15000 ng·h/mL
